tested on: MAP3K3; settings: concentration: 1 μM, replicates: in singlicate; n = 1;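 further: KINOMEscan kinase panel screen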
recorded metric: %Inh (%)
Please respond with the number in % and leave the unit unwritten.

| compound | target system | measured result |
| --- | --- | --- |
| COc1cc2ncn(-c3cc(OCC4CCCO4)c(C(N)=O)s3)c2cc1OC (stereo not drawn) | MAP3K3 | 0 |
| CC(C)(C)c1ccc(C(=O)Nc2cn3cc(-c4cccnc4)ccc3n2)cc1 | MAP3K3 | 26 |
| CC(C)(C)c1ccc(C(=O)Nc2cn3cc(Cl)ccc3n2)cc1 | MAP3K3 | 0 |

Entry under test: COc1cc2ncnc(Nc3ccc4nc(-c5ccccc5)[nH]c4c3)c2cc1OC.Cl . Its %Inh was 0

Entry under test: CN(C)CCN(C)C(=O)c1cc(-c2ccncc2)c(-c2ccc(Cl)c(O)c2)o1.Cl.Cl . Its %Inh was 0

Entry under test: O=C(Nc1ccc2c(c1)OCO2)NC1CCN(c2ccnc(Nc3ccc(F)cc3)n2)C1 (stereo not drawn) . Its %Inh was 0

Entry under test: CCn1c(-c2cccnc2O)nc2cnccc21 . Its %Inh was 0

Entry under test: O=C(Nc1n[nH]c2cc(-c3cccc(F)c3F)ccc12)C1CC1 . Its %Inh was 30

Entry under test: CS(=O)(=O)c1ccc(-c2c(-c3ncn[nH]3)sc(N3CCOCC3)c2C#N)cc1 . Its %Inh was 27

###

Entries and their %Inh
system: MAP3K4; details: concentration: 1 μM, replicates: in singlicate; n = 1
Please respond with the number in % and leave the unit unwritten.

| compound | recorded metric | u | measured result |
| --- | --- | --- | --- |
| Nc1ncnc2[nH]c(-c3ccccc3)nc12 | %Inh | % | 0 |
| CC(=O)Nc1nc2cnc(Nc3cc(NC(=O)c4cccc(CCC#N)c4)ccc3C)nc2s1 | %Inh | % | 0 |
| COc1ccc2nc(-c3cccc(C)n3)nc(Nc3ccncc3)c2c1 | %Inh | % | 9 |
| CS(=O)(=O)c1ccc(-c2c(-c3ncn[nH]3)sc(N3CCOCC3)c2C#N)cc1 | %Inh | % | 2 |
| Cc1cccc(-c2nc(Nc3cccc(C(N)=O)c3)c3ccccc3n2)n1 | %Inh | % | 0 |
| Cc1ccc(C(=O)Nc2ccc(Nc3ccnc4cc(-c5ccccn5)ccc34)cc2O)cc1.Cl | %Inh | % | 25 |

Entry under test: COc1cc2nccc(Nc3ccc(NC(=O)c4ccc(C)cc4)c(O)c3)c2cc1OC.Cl . Its %Inh was 2

Entry under test: Cc1cc(N2Cc3ccccc3C2)nc(Nc2ccc(S(=O)(=O)N3CCOCC3)cc2)n1.Cl . Its %Inh was 2

Entry under test: Cn1cncc1-c1ccc2ncnc(Nc3ccc(OCc4ccccc4)cc3)c2c1 . Its %Inh was 19

Entry under test: CC(C)(C)c1ccc(C(=O)Nc2cn3cc(-c4cccnc4)ccc3n2)cc1 . Its %Inh was 17

Entry under test: CN(C)CCN(C)C(=O)c1cc(-c2ccncc2)c(-c2ccc(Cl)c(O)c2)o1.Cl.Cl . Its %Inh was 14

Entry under test: COc1ccccc1-c1ccc2c(NC(=O)C3CC3)n[nH]c2n1 . Its %Inh was 32

Entry under test: CCn1c(-c2ccccn2)nc2cnccc21 . Its %Inh was 19

Entry under test: O=S(=O)(c1ccc(-c2ccnc3[nH]ccc23)cc1)N1CCCC1 . Its %Inh was 0

Entry under test: Cc1ccccc1-n1cnc2c(N)ncnc21 . Its %Inh was 0

Entry under test: CC1=C(C(=O)Nc2cc3cn[nH]c3cc2F)C(c2ccc(C(F)(F)F)cc2)CC(=O)N1 (centres unmarked) . Its %Inh was 0

Entry under test: Cn1ccc2ncnc(Oc3cccc(C(=O)Nc4ccccc4)c3)c21 . Its %Inh was 0

Entry under test: CN1C(=O)C(Nc2ccc(Cl)c(C(=O)O)c2)=C(c2ccc(Cl)cc2)C1=O . Its %Inh was 9

Entry under test: NC(=O)c1nnc2ccccc2c1N . Its %Inh was 15

Entry under test: COC(=O)c1c(-c2ccccc2)c2cc(OC)ccc2c(=O)n1Cc1ccccc1 . Its %Inh was 12

###

test system: MEK2; construct: gene MAP2K2; conditions: concentration: 1 μM, replicates: in singlicate; n = 1
Entries and their %Inh

| smiles notation | %Inh |
| --- | --- |
| Cc1cccc(-c2cc(Nc3ccncc3)c3ccccc3n2)n1 | 0% |
| O=C(O)COc1ncnc2cc(-c3ccc4[nH]ncc4c3)sc12 | 7% |

Entry under test: COC(=O)c1c(-c2ccccc2)c2cc(C(=O)O)ccc2c(=O)n1Cc1ccccc1 . Its %Inh was 10%

Entry under test: Nc1nc(-c2nccs2)c(-c2ccnc3ccccc23)s1 . Its %Inh was 0%

Entry under test: Cc1cccc(-c2nc(-c3ccc(S(C)(=O)=O)cc3)sc2-c2ccnc(NCCc3ccccc3)c2)c1 . Its %Inh was 7%

###

system: LZK; construct: gene MAP3K13; conditions: concentration: 1 μM, replicates: in singlicate; n = 1
recorded metric: %Inh (%)
Please respond with the number in % and leave the unit unwritten.

| molecule | u | measured result |
| --- | --- | --- |
| CCn1c(-c2ccccn2)nc2cnccc21 [SB-736398] | % | 11 |
| Cl.c1ccc(-c2n[nH]cc2-c2ccnc(-c3ccc(CN4CCOCC4)cc3)c2)nc1 [GW776245] | % | 0 |
| CSc1nn2c(=O)cc(N3CCOCC3)nc2n1Cc1cccc(C(F)(F)F)c1C [GSK2363608] | % | 0 |

Entry under test: C[C@@H]1CCCCN1c1cc(-c2ccc3c(N)n[nH]c3c2)nc(N)n1 [GSK2258759] . Its %Inh was 0

Entry under test: COc1cc(Nc2nccc(N3CCC(NC(=O)Nc4cc(C)ccc4C)C3)n2)cc(OC)c1OC (stereo not drawn) [GSK1379762] . Its %Inh was 0

Entry under test: Fc1cc(Cl)ccc1Nc1ccnc2cc(-c3ccc(CN4CCCCC4)o3)ccc12 [GW560116] . Its %Inh was 7

###

Entries and their %Inh
tested on: ANKK1; conditions: concentration: 1 μM, replicates: in singlicate; n = 1
Please respond with the number in % and leave the unit unwritten.

Entry under test: COc1ccccc1CNC(=O)c1cc(C(=O)c2ccccc2C)c[nH]1 . Its %Inh was 0

###

tested on: PRKCH; conditions: concentration: 1 μM, replicates: in singlicate; n = 1
Entries and their %Inh
Please respond with the number in % and leave the unit unwritten.

Entry under test: Cc1c(O)cccc1Nc1ccnc2ccc(C(F)(F)F)cc12.Cl . Its %Inh was 28

###

Entries and their %Inh
system: DYRK1B; conditions: concentration: 1 μM, replicates: in singlicate; n = 1
Please respond with the number in % and leave the unit unwritten.

Sample records with %Inh:
| compound | recorded metric | u | measured result |
| --- | --- | --- | --- |
| Cc1cccc(-c2nc(Nc3cccc(C(N)=O)c3)c3ccccc3n2)n1 | %Inh | % | 65 |
| Cc1ccc(NC(=O)Nc2cc(C(C)(C)C)nn2-c2ccccc2)cc1 | %Inh | % | 11 |
| O=C(Nc1n[nH]c2nc(-c3nccs3)c(Br)cc12)C1CCCC1 | %Inh | % | 15 |
| CS(=O)(=O)c1ccc(-c2nc3n(c2-c2ccncc2)CCC3)cc1 | %Inh | % | 0 |

Entry under test: Cl.c1ccc(-c2n[nH]cc2-c2ccnc(-c3ccc(CN4CCOCC4)cc3)c2)nc1 . Its %Inh was 0

Entry under test: CC(C)(C)c1ccc(C(=O)Nc2cn3cc(Cl)ccc3n2)cc1 . Its %Inh was 65

Entry under test: Cc1ccc(C(=O)Nc2ccc(Nc3ccnc4cc(-c5ccccn5)ccc34)cc2O)cc1.Cl . Its %Inh was 0

Entry under test: COC(=O)c1c(-c2ccccc2)c2cc(C(=O)O)ccc2c(=O)n1Cc1ccccc1 . Its %Inh was 32

Entry under test: COc1cccc(NC(=O)NC2CCN(c3ccnc(Nc4ccc(F)cc4)n3)C2)c1 (stereo not shown) . Its %Inh was 30

Entry under test: Cc1c(Cn2ccn3c(=O)cc(N4CCOCC4)nc23)cccc1C(F)(F)F . Its %Inh was 21

Entry under test: COc1cc2ncnc(Nc3ccc4nc(-c5ccccc5)[nH]c4c3)c2cc1OC.Cl . Its %Inh was 0

Entry under test: Cc1c(O)cccc1Nc1ccnc2ccc(C(F)(F)F)cc12.Cl . Its %Inh was 0

Entry under test: Fc1cccc(COc2nnc(-c3ccc4c(c3)CCO4)o2)c1 . Its %Inh was 65

Entry under test: CCCc1ccc(S(=O)(=O)NC2CCN(c3ccnc(Nc4ccc(F)cc4)n3)C2)cc1 (stereo not shown) . Its %Inh was 0

Entry under test: Fc1cc(Cl)ccc1Nc1ccnc2cc(-c3ccc(CN4CCCCC4)o3)ccc12 . Its %Inh was 0

Entry under test: COc1ccc2nc(-c3cccc(C)n3)nc(Nc3ccncc3)c2c1 . Its %Inh was 0

Entry under test: COc1cccc(-c2cc(-c3c[nH]nc3-c3ccccn3)ccn2)c1 . Its %Inh was 14

Entry under test: COc1cc2ncn(-c3cc(OCC4CCCO4)c(C(N)=O)s3)c2cc1OC (stereo not shown) . Its %Inh was 0

Entry under test: Nc1nc(-c2nccs2)c(-c2ccnc3ccccc23)s1 . Its %Inh was 25
